# Study System: GCase (Homo sapiens, UniProt P04062)
# Construct: endogenous in cells; host or cells: HeLa cells
# Sequence (P04062 40-536): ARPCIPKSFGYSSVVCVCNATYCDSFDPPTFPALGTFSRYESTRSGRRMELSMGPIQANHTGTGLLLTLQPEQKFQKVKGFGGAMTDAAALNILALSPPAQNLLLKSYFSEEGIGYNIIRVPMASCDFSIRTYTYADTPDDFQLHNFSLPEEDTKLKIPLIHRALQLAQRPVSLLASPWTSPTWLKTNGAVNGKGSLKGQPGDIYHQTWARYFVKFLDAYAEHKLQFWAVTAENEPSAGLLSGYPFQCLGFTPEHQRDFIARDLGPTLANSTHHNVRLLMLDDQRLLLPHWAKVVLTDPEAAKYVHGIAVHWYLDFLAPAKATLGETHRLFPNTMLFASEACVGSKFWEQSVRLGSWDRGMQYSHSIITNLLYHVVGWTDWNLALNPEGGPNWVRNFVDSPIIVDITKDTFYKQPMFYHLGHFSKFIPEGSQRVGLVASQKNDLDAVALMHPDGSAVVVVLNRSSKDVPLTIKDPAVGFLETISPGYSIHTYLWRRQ
# Method Notes: activation of GCase in a live cell PFB assay in HELA cells
# Type: cell-based
# Assay Setup: activation of GCase, EC50 ranges
Assay Endpoint: EC50

Exercise: // returns reported EC50 for input `FC(F)Cn1ncc2ncc(N3CC4(CC(COc5cccc(C(F)(F)F)n5)C4)C3)nc21`
Solution: < 10 µM

----------
# Study System: GCase (Homo sapiens)
# Construct: endogenous in cells; host or cells: HeLa cells
# Method Notes: activation of GCase in a live cell PFB assay in HELA cells
# Type: cell-based
# Assay Setup: activation of GCase, EC50 ranges
# Experimental: Exemplary compounds were evaluated for activation of GCase in a live cell PFB assay in HELA cells (essentially as described in Ysselstein et al., “LRRK2 kinase activity regulates lysosomal glucocerebrosidase in neurons derived from Parkinson's disease patients” Nature Communications (2019) 10:5570). […] EC50 ranges: A: <10 μM; B: >10-50 μM; C: >50-100 μM; D: >100 μM.
Assay Endpoint: EC50

// known answers, use as guide
# Test Smiles, EC50
rows = [
    ("O=C1CC2(CCN(c3cnc4cnn(C5COC5)c4n3)CC2)CN1c1nccc(C(F)(F)F)n1", "< 10 µM"),
    ("CCOc1nn(CC(F)F)c2nc(N3CCC4(CC3)CC(=O)N(c3ccc(C(F)(F)F)nc3)C4)ncc12", "10 to 50 µM"),
    ("Cc1nc(N2CC3(CCN(c4nc5c(cnn5CC(F)F)c(=O)n4CC(C)C)C3)C2)cc(C(F)(F)F)n1", "< 10 µM"),
    ("Cc1cc(N2CC3(CCN(c4ncc5c(C)nn(C6COC6)c5n4)C3)C2)nc(C(F)(F)F)n1", "< 10 µM"),
    ("FC(F)Cn1ncc2ncc(N3CCC4(CC3)CC(Oc3cccnc3C(F)(F)F)C4)nc21", "< 10 µM"),
    ("FC(F)Cn1ncc2ncc(N3CC4(CC(COc5cccnc5C(F)(F)F)C4)C3)nc21", "< 10 µM"),
    ("FC(F)(F)c1ncc(N2CC3(CCN(c4cnc5cnn([C@H]6CCOC6)c5n4)C3)C2)cn1", "10 to 50 µM"),
    ("FC(F)Cn1ncc2ncc(N3CCC4(CN(c5ccc(OC(F)F)nc5)C4)C3)nc21", "10 to 50 µM"),
    ("FC(F)Cn1ncc2ncc(N3CCC4(CC3)CN(c3cnc(C(F)(F)F)nc3)C4)nc21", "< 10 µM"),
]

As a next step, examine the molecule that follows.
Exercise: Field request: EC50 | item: `CCc1csc(CN2CCC3(CCN(c4cnc5cnn(CC(F)F)c5n4)CC3)C2=O)n1`
Solution: < 10 µM
